Kd values by entry
# Target Or System: C52Hg Brazilian variant (Acro) spike protein (SARS-CoV-2, UniProt P0DTC2 16-1213)
# Protocol Text: SPR (Carterra LSA); antibody on chip, spike protein as analyte; summary table
Readout Type: Kd (nM)

Binder: Antibody 1-1 (Fc fusion) EVQLVESGGGLVQPGGSLRLSCAASGSIGSINAMGWFRQAPGKEREWVAGISNGGTTNYADSVKGRFTISADNSKNTAYLQMNSLKPEDTAVYYCAADGVPEYSDYASGPVWGQGTLVTVSS
Value Reported: 0.691
--
Binder: Antibody 1-11 (Fc fusion) EVQLVESGGGLVQPGGSLRLSCAASGFTFDDYVMGWFRQAPGKEREFVAVISWTGESTLYADSVKGRFTISADNSKNTAYLQMNSLKPEDTAVYYCAAFDGYSGSDWGQGTLVTVSS
Value Reported: 4.67
--
Binder: Antibody 1-15 (Fc fusion) EVQLVESGGGLVQPGGSLRLSCAASGGIFSDMFMGWFRQAPGKEREFVATIDWSGDTAFYADSVKGRFTISADNSKNTAYLQMNSLKPEDTAVYYCAVDLSGDAVYDWGQGTLVTVSS
Value Reported: 1.04
--
Binder: Antibody 1-16 (Fc fusion) EVQLVESGGGLVQPGGSLRLSCAASGRTYAMGWFRQAPGKERELVAEITAGGSTYYADSVKGRFTISADNSKNTAYLQMNSLKQEDTAVYYCAVDGPFGWGQGTLVTVSS
Value Reported: 4.79
--
Binder: Antibody 1-7 (Fc fusion) EVQLVESGGGLVQPGGSLRLSCAASGGTFSSIGMGWFRQAPGKEREFVAAISWDGGATAYADSVKGRFTISADNSKNTVYLQMNSLKPEDTAVYYCAKEDVGKPFDWGQGTLVTVSS
Value Reported: 0.962
